Assay notes: AUC in mouse at 10 mg/kg, po
Type: ADME, organism-based
Applied conditions: in vivo
Value type: AUC(0-inf) (ng·h/mL)

[A] C/C1=C/CC[C@@]2(C)O[C@@H]2[C@H]2OC(=O)[C@@H](CN3CCCC3)[C@@H]2CC1
[B] C/C1=C\CC[C@@]2(C)O[C@@H]2[C@H]2OC(=O)[C@@H](CN3CCC(c4cc(O)nc(C)n4)CC3)[C@@H]2CC1
In: Form: Entry with minimum AUC(0-inf) (choose one): A / B Respond with the label that goes with your answer.
Out: A

---

Assay notes: Tmax in mouse at 10 mg/kg, po
Assay type: ADME, organism-based
Applied conditions: in vivo
Value type: Tmax (min)
# output: bare number, implied unit min

In: Suppose we examine the compound `C/C1=C/CC[C@@]2(C)O[C@@H]2[C@H]2OC(=O)[C@@H](CN3CCCC3)[C@@H]2CC1` ; what Tmax value has been reported?
Out: 30

---

Assay notes: Half life in aqueous solution at pH 7.4
Assay type: physicochemical
Value type: half-life

In: I'd like to know its half-life. The compound in question is `C/C1=C/CC[C@@]2(C)O[C@@H]2[C@H]2OC(=O)[C@@H](CN3CCCC3)[C@@H]2CC1`
Out: > 120 min

---

Assay notes: Permeability across apical to basolateral side in human Caco2 cells
Assay type: ADME, cell-based
Applied conditions: Caco-2
Value type: Papp A→B (×10⁻⁶ cm/s)
Number in ×10⁻⁶ cm/s, nothing else.

In: What does the record list as Papp A→B for `C/C1=C/CC[C@@]2(C)O[C@@H]2[C@H]2OC(=O)[C@@H](CN3CCCC3)[C@@H]2CC1` ?
Out: 15.9

---

Assay notes: AUC (0 to infinity) in mouse at 1 mg/kg, iv
Assay type: ADME, organism-based
Parameters: dose 1 mg/kg, route intravenous, time infinity
Applied conditions: in vivo
Value type: AUC(0-inf) (ng·h/mL)

[a] C/C1=C\CC[C@@]2(C)O[C@@H]2[C@H]2OC(=O)[C@@H](CN3CCC(c4cc(O)nc(C)n4)CC3)[C@@H]2CC1
[b] C/C1=C/CC[C@@]2(C)O[C@@H]2[C@H]2OC(=O)[C@@H](CN3CCCC3)[C@@H]2CC1
In: Would you mind telling me which has the lower recorded AUC(0-inf) between a and b ? Output the label that corresponds to your choice.
Out: b
